- TEST SYSTEM: Prostaglandin D2 receptor 2 (Homo sapiens) (UniProt Q9Y5Y4)
- Sequence (whole entry): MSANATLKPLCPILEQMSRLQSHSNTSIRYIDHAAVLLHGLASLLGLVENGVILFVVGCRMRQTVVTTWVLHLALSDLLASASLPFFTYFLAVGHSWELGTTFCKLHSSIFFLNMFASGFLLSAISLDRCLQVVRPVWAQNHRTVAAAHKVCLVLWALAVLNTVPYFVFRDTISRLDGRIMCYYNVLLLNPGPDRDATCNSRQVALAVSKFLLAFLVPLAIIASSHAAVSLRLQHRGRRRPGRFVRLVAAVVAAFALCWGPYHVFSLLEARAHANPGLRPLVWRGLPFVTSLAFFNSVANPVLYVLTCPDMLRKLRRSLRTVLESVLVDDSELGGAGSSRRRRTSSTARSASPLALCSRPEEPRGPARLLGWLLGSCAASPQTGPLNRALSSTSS
- EXPERIMENT DESCRIPTION: Antagonist activity at human CRTH2 receptor expressed in CHO cell membrane assessed as inhibition of PGD2-induced [35S]GTPgammaS binding at 2 uM after 30 mins by microbeta scintillation counting relative to control
- Format: functional, cell membranes
OUTCOME MEASURE: inhibition (%)

> print(dat)
                        structure.as.smiles  outcome.measure  assay.result
1  CCC(=O)N(Cc1ccc(C(F)(F)F)cc1)c1cc(F)cc(-c2nnn[nH]2)c1       inhibition           105
2  CCC(=O)N(Cc1cccc(O)c1)c1cc(F)cc(-c2nnn[nH]2)c1       inhibition           106
3  CC(C)CC(=O)N(Cc1ccc(S(C)(=O)=O)cc1)c1cc(F)cc(-c2nnn[nH]2)c1       inhibition            85
4  CCCCC(=O)N(Cc1ccc(OC(F)(F)F)cc1)c1cc(Cl)cc(-c2nnn[nH]2)c1       inhibition           112
